For each record, write down the corresponding EC50.
- system: Melanocortin receptor 5 (Mus musculus)
- Sequence (P41149 whole entry): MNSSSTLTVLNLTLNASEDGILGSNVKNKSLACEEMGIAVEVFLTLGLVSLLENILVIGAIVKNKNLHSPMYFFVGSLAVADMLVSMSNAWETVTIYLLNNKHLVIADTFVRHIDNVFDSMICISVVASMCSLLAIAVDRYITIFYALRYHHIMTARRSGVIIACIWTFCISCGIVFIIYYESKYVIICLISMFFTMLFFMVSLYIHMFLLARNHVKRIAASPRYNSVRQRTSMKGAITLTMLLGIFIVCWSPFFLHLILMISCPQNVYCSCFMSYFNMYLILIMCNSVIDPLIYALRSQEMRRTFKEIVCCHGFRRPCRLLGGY
- protocol: Agonist activity at mouse melanocortin receptor 5 expressed in HEK293 cells assessed as stimulation of intracellular cAMP accumulation incubated for 24 hrs by beta-galactosidase reporter gene assay
Give bare numbers, in nM.

// EC50 value for CCC[C@@H]1CN([C@H](CC2CCCCC2)CN2CCC[C@H]2CN2C(=N)NC[C@H]2CC(C)C)C(=N)N1CC1CCC(C(C)(C)C)CC1 (stereo partly drawn) : 530

Batch request: EC50 for each of the following molecules.
1. CC(C)[C@@H]1CNC(=N)N1C[C@@H]1CCCN1C[C@@H](Cc1ccccc1)N1C[C@@H](C(C)C)N(CC2CCC(C(C)(C)C)CC2)C1=N (stereo partly drawn)
2. CC(C)[C@@H]1CNC(=N)N1C[C@@H]1CCCN1C[C@@H](CC1CCCCC1)N1C[C@@H](C(C)C)N(CC23CC4CC(CC(C4)C2)C3)C1=N
3. CCC[C@@H]1CN([C@H](Cc2ccccc2)CN2CCC[C@H]2CN2C(=N)NC[C@H]2C(C)C)C(=N)N1CCCC(C)C
4. CC(C)[C@@H]1CNC(=N)N1C[C@@H]1CCCN1C[C@@H](Cc1ccccc1)N1C[C@@H]([C@@H](C)O)N(CC23CC4CC(CC(C4)C2)C3)C1=N

1: 600; 2: 580; 3: 2030; 4: 180

Batch request: EC50 for each of the following molecules.
1. CC(C)[C@@H]1CNC(=N)N1C[C@@H]1CCCN1C[C@@H](CC1CCCCC1)N1C[C@@H]([C@@H](C)O)N(CC2CCC(C(C)(C)C)CC2)C1=N (stereo partly drawn)
2. CCC[C@@H]1CN([C@H](CC2CCCCC2)CN2CCC[C@H]2CN2C(=N)NC[C@H]2C(C)C)C(=N)N1CCCC(C)C
3. CC(C)C[C@@H]1CNC(=N)N1C[C@@H]1CCCN1C[C@@H](Cc1ccccc1)N1C[C@@H](C(C)C)N(CC2CCC(C(C)(C)C)CC2)C1=N (stereo partly drawn)

[150, 1040, 560]

* * *

- system: Melanocyte-stimulating hormone receptor (Mus musculus, UniProt Q01727)
- Sequence (Q01727 whole entry): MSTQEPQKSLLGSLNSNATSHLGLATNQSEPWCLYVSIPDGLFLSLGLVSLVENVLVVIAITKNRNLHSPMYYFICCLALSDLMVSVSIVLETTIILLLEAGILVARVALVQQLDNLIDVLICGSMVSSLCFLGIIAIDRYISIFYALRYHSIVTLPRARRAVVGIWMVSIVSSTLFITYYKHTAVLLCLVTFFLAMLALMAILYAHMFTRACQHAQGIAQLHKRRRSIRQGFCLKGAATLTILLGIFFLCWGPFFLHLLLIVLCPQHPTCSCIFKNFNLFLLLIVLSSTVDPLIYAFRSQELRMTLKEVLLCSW
- protocol: Agonist activity at mouse melanocortin receptor 1 expressed in HEK293 cells assessed as stimulation of intracellular cAMP accumulation incubated for 24 hrs by beta-galactosidase reporter gene assay
- Type: functional, cell-based
For each record, write down the corresponding pEC50.
Give bare numbers, as −log10 of the molar value.

// solved cases for pEC50 follow
// pEC50 value for `CC(C)C[C@@H]1CNC(=N)N1C[C@@H]1CCCN1C[C@@H](CC1CCCCC1)N1C[C@@H]([C@@H](C)O)N(CC23CC4CC(CC(C4)C2)C3)C1=N` : 6.48

// pEC50 value for `CC(C)CCCN1C(=N)N([C@H](CC2CCCCC2)CN2CCC[C@H]2CN2C(=N)NC[C@H]2C(C)C)C[C@H]1[C@@H](C)O` : 6.15

// pEC50 value for CC(C)[C@@H]1CNC(=N)N1C[C@@H]1CCCN1C[C@@H](Cc1ccccc1)N1C[C@@H](C(C)C)N(CC2CCC(C(C)(C)C)CC2)C1=N (stereo partly specified) : 4.54

// pEC50 value for `CCC[C@@H]1CN([C@H](Cc2ccccc2)CN2CCC[C@H]2CN2C(=N)NC[C@H]2CC(C)C)C(=N)N1CC12CC3CC(CC(C3)C1)C2` : 5.15

// pEC50 value for CC(C)[C@@H]1CNC(=N)N1C[C@@H]1CCCN1C[C@@H](CC1CCCCC1)N1C[C@@H]([C@@H](C)O)N(CC2CCC(C(C)(C)C)CC2)C1=N (stereo partly specified) : 6.52

Batch request: pEC50 for each of the following compounds.
1. CCC[C@@H]1CN([C@H](CC2CCCCC2)CN2CCC[C@H]2CN2C(=N)NC[C@H]2CC(C)C)C(=N)N1CCCC(C)C
2. CC(C)[C@@H]1CNC(=N)N1C[C@@H]1CCCN1C[C@@H](CC1CCCCC1)N1C[C@@H](C(C)C)N(CC23CC4CC(CC(C4)C2)C3)C1=N
3. CCC[C@@H]1CN([C@H](Cc2ccccc2)CN2CCC[C@H]2CN2C(=N)NC[C@H]2C(C)C)C(=N)N1CC1CCC(C(C)(C)C)CC1 (stereo partly specified)
4. CC(C)[C@@H]1CNC(=N)N1C[C@@H]1CCCN1C[C@@H](CC1CCCCC1)N1C[C@@H](C(C)C)N(CC2CCC(C(C)(C)C)CC2)C1=N (stereo partly specified)
5. CC(C)C[C@@H]1CNC(=N)N1C[C@@H]1CCCN1C[C@@H](CC1CCCCC1)N1C[C@@H]([C@@H](C)O)N(CC2CCC(C(C)(C)C)CC2)C1=N (stereo partly specified)
6. CC(C)CCCN1C(=N)N([C@H](CC2CCCCC2)CN2CCC[C@H]2CN2C(=N)NC[C@H]2CC(C)C)C[C@H]1[C@@H](C)O
7. CC(C)[C@@H]1CNC(=N)N1C[C@@H]1CCCN1C[C@@H](Cc1ccccc1)N1C[C@@H]([C@@H](C)O)N(CC23CC4CC(CC(C4)C2)C3)C1=N
8. CC(C)[C@@H]1CNC(=N)N1C[C@@H]1CCCN1C[C@@H](Cc1ccccc1)N1C[C@@H]([C@@H](C)O)N(CC2CCC(C(C)(C)C)CC2)C1=N (stereo partly specified)

1. 5.64
2. 6.52
3. 5.64
4. 6.54
5. 6.52
6. 5.14
7. 6.36
8. 6.22

Batch request: pEC50 for each of the following compounds.
1. CC(C)CCCN1C(=N)N([C@H](CC2CCCCC2)CN2CCC[C@H]2CN2C(=N)NC[C@H]2C(C)C)C[C@H]1C(C)C
2. CC(C)C[C@@H]1CNC(=N)N1C[C@@H]1CCCN1C[C@@H](Cc1ccccc1)N1C[C@@H](C(C)C)N(CC2CCC(C(C)(C)C)CC2)C1=N (stereo partly specified)
3. CC(C)CCCN1C(=N)N([C@H](Cc2ccccc2)CN2CCC[C@H]2CN2C(=N)NC[C@H]2C(C)C)C[C@H]1C(C)C

[5.21, 5.17, 4.99]
